# system_tested: BsCspB (cold shock protein B) (UniProt P32081 1-67)
# Sequence (P32081 whole entry): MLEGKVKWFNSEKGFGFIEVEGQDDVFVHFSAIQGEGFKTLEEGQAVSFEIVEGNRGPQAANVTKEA
# protocol: intrinsic Trp fluorescence quenching; dilute; 20 mM disodium phosphate pH 7.0, no added salt stated; fluorescence titration 298 K (0.5, 2.8 or 4 uM protein; table marks a/b not explained in the material); stopped-flow 288 K (60 or 300 nM protein); NMR 298 or 294.4 K with 5% D2O
# measurement_conditions: protein: recombinant; single strand
reported_property: pKd
Answers are plain numbers, as −log10 of the molar value.

Provide pKd values for the following items, in order.
1. TTTTTT (ssDNA) [dT6]
2. TTTTT (ssDNA) [dT5]

Output:
1. 7.10
2. 6.12

Give pKd for each of the items listed below.
1. TTTT (ssDNA) [dT4]
2. TTTTTTT (ssDNA) [dT7]

Output:
[5.21, 7.82]
